Test: Solubility of KDR2-2 in different media
Assay type: physicochemical
Details: iso-propyl alcohol, organic solvent or mixture
quantity-kind: solubility

Quick note, solubility for Nc1nccc(Oc2ccc3c(C(=O)Nc4cccc(C(F)(F)F)c4)cccc3n2)n1 [KDR2-2] landed at < 1100 µg/mL

###

Assay: Solubility of KDR2-2 in different media
Format: physicochemical
Conditions: tetrahydrofuran, organic solvent or mixture
quantity-kind: solubility

Quick note, solubility for Nc1nccc(Oc2ccc3c(C(=O)Nc4cccc(C(F)(F)F)c4)cccc3n2)n1 [KDR2-2] landed at > 18 mg/mL

###

Experiment: Solubility of KDR2-2 in different media
Assay type: physicochemical
Conditions: dimethylsulfoxide, organic solvent or mixture
quantity-kind: solubility

Quick note, solubility for Nc1nccc(Oc2ccc3c(C(=O)Nc4cccc(C(F)(F)F)c4)cccc3n2)n1 [KDR2-2] landed at > 28 mg/mL

###

Test: Solubility of KDR2-2 in different media
Assay type: physicochemical
Settings: ethanol, organic solvent or mixture
quantity-kind: solubility

Quick note, solubility for Nc1nccc(Oc2ccc3c(C(=O)Nc4cccc(C(F)(F)F)c4)cccc3n2)n1 landed at 2400 to 2700 µg/mL

###

Assay: Solubility of KDR2-2 in different media
Format: physicochemical
Details: methyl tert-butyl ether, organic solvent or mixture
quantity-kind: solubility

Quick note, solubility for Nc1nccc(Oc2ccc3c(C(=O)Nc4cccc(C(F)(F)F)c4)cccc3n2)n1 landed at < 1.2 mg/mL

###

Assay: Solubility of KDR2-2 in different media
Assay type: physicochemical
Conditions: water
quantity-kind: solubility

Quick note, solubility for Nc1nccc(Oc2ccc3c(C(=O)Nc4cccc(C(F)(F)F)c4)cccc3n2)n1 [KDR2-2] landed at < 1100 µg/mL

###

Experiment: Solubility of KDR2-2 in different media
Assay type: physicochemical
Details: toluene, organic solvent or mixture
quantity-kind: solubility

Quick note, solubility for Nc1nccc(Oc2ccc3c(C(=O)Nc4cccc(C(F)(F)F)c4)cccc3n2)n1 [KDR2-2] landed at < 900 µg/mL
